Test system: TK-10
Assay: Antiproliferative activity against human TK10 cells after 48 hrs by SRB assay
Type: functional
Conditions: TK-10, 48 h
reported metric: TGI (µM)
Write the number in µM without appending the unit.

{"columns": ["compound", "readout unit", "TGI"],
 "data": [
  ["O=C(O)C1=C(Nc2ccc(Cl)cc2)C(=O)c2ccccc2C1=O", "µM", 79]
]}

Consider the record given below.
For COc1cc([C@@H]2c3cc4c(cc3[C@@H](O[C@@H]3O[C@@H]5CO[C@@H](C)O[C@H]5[C@H](O)[C@H]3O)[C@H]3COC(=O)[C@H]23)OCO4)cc(OC)c1O [ETOPOSIDE] the compound record lists TGI as 49.7

###

Test system: TK-10
Assay: Antiproliferative activity against human TK10 cells after 48 hrs by SRB assay
Format: functional
Conditions: TK-10, 48 h
reported metric: TGI

As a guide, the following entries are already answered.
{"columns": ["given smiles", "TGI"],
 "data": [
  ["O=C(O)C1=C(Nc2ccccc2Cl)C(=O)c2ccccc2C1=O", "> 100 µM"],
  ["O=C(O)C1=C(Nc2ccc(Cl)cc2F)C(=O)c2ccccc2C1=O", "93.3 µM"],
  ["O=C(O)C1=C(Nc2ccc(F)cc2)C(=O)c2ccccc2C1=O", "> 100 µM"],
  ["N#Cc1cccc(NC2=C(C(=O)O)C(=O)c3ccccc3C2=O)c1", "76.2 µM"],
  ["O=C(O)C1=C(Nc2ccccc2F)C(=O)c2ccccc2C1=O", "> 100 µM"],
  ["CC(C)c1ccc(NC2=C(C(=O)O)C(=O)c3ccccc3C2=O)cc1", "63.6 µM"]
]}

Pending compound:
Recorded TGI for O=C(O)C1=C(Nc2cccc(Cl)c2)C(=O)c2ccccc2C1=O on TK-10 was > 100 µM

###

Tested on: MCF7
Assay: Antiproliferative activity against human MCF7 cells after 48 hrs by SRB assay
Format: functional
Details: MCF7, 48 h, read-out: LC50 (the source's name)
Consider the following compounds and their measured CC50 readings.
Kindly provide the numeric value in µM only, without the unit symbol.

Known CC50 results, listed for orientation:
{"columns": ["given smiles", "reported metric", "readout unit", "obs value"],
 "data": [
  ["O=C(O)C1=C(Nc2cccc(F)c2)C(=O)c2ccccc2C1=O", "CC50", "µM", 91],
  ["O=C(O)C1=C(Nc2ccccc2F)C(=O)c2ccccc2C1=O", "CC50", "µM", 92.2],
  ["N#Cc1cccc(NC2=C(C(=O)O)C(=O)c3ccccc3C2=O)c1", "CC50", "µM", 92.4]
]}

Field CC50 (entry O=C(O)C1=C(Nc2ccc(Cl)cc2F)C(=O)c2ccccc2C1=O ) reads 88.5

The compound listed as O=C(O)C1=C(Nc2ccc(Cl)cc2)C(=O)c2ccccc2C1=O has a reported CC50 of 93

###

Test system: UACC-62
Experiment: Antiproliferative activity against human UACC62 cells after 48 hrs by SRB assay
Format: functional
Conditions: UACC-62, 48 h, read-out: LC50 (the source's name)
Each record here notes measured CC50.

Illustrative cases are given below, each with its answer.
{"columns": ["molecule", "tested target", "reported metric", "obs value"],
 "data": [
  ["O=C(O)C1=C(Nc2ccccc2F)C(=O)c2ccccc2C1=O", "UACC-62", "CC50", "65.4 µM"],
  ["CC(C)c1ccc(NC2=C(C(=O)O)C(=O)c3ccccc3C2=O)cc1", "UACC-62", "CC50", "58.1 µM"],
  ["O=C(O)C1=C(Nc2ccc(F)cc2)C(=O)c2ccccc2C1=O", "UACC-62", "CC50", "72.1 µM"],
  ["N#Cc1cccc(NC2=C(C(=O)O)C(=O)c3ccccc3C2=O)c1", "UACC-62", "CC50", "19.3 µM"],
  ["O=C(O)C1=C(Nc2ccccc2)C(=O)c2ccccc2C1=O", "UACC-62", "CC50", "73.1 µM"],
  ["O=C(O)C1=C(Nc2cccc(F)c2)C(=O)c2ccccc2C1=O", "UACC-62", "CC50", "59.4 µM"],
  ["O=C(O)C1=C(Nc2ccc(Cl)cc2)C(=O)c2ccccc2C1=O", "UACC-62", "CC50", "55.1 µM"],
  ["O=C(O)C1=C(Nc2cccc(Cl)c2)C(=O)c2ccccc2C1=O", "UACC-62", "CC50", "81.2 µM"]
]}

Per the record, O=C(O)C1=C(Nc2ccccc2Cl)C(=O)c2ccccc2C1=O has CC50 of > 100 µM

The molecule identified as COc1cc([C@@H]2c3cc4c(cc3[C@@H](O[C@@H]3O[C@@H]5CO[C@@H](C)O[C@H]5[C@H](O)[C@H]3O)[C@H]3COC(=O)[C@H]23)OCO4)cc(OC)c1O [ETOPOSIDE] registered its CC50 at > 100 µM

Record O=C(O)C1=C(Nc2ccc(CCO)cc2)C(=O)c2ccccc2C1=O , field CC50: 72 µM

Form field CC50, entry O=C(O)C1=C(Nc2ccc(Cl)cc2F)C(=O)c2ccccc2C1=O : 40.4 µM

###

GI50 reference
Tested on: TK-10
Assay: Antiproliferative activity against human TK10 cells after 48 hrs by SRB assay
Type: functional
Details: TK-10, 48 h
Report only the number, with the unit µM understood.

Reference set (8 entries):
{"columns": ["compound", "obs value"],
 "data": [
  ["O=C(O)C1=C(Nc2cccc(Cl)c2)C(=O)c2ccccc2C1=O", 35.9],
  ["N#Cc1cccc(NC2=C(C(=O)O)C(=O)c3ccccc3C2=O)c1", 23.7],
  ["O=C(O)C1=C(Nc2ccccc2Cl)C(=O)c2ccccc2C1=O", 80.7],
  ["O=C(O)C1=C(Nc2ccc(F)cc2)C(=O)c2ccccc2C1=O", 46.6],
  ["CC(C)c1ccc(NC2=C(C(=O)O)C(=O)c3ccccc3C2=O)cc1", 8.38],
  ["O=C(O)C1=C(Nc2ccccc2)C(=O)c2ccccc2C1=O", 74.1],
  ["O=C(O)C1=C(Nc2ccccc2F)C(=O)c2ccccc2C1=O", 36.9],
  ["COc1cc([C@@H]2c3cc4c(cc3[C@@H](O[C@@H]3O[C@@H]5CO[C@@H](C)O[C@H]5[C@H](O)[C@H]3O)[C@H]3COC(=O)[C@H]23)OCO4)cc(OC)c1O [ETOPOSIDE]", 7.19]
]}

We now examine a further compound.
Recorded result, O=C(O)C1=C(Nc2ccc(Cl)cc2F)C(=O)c2ccccc2C1=O , GI50: 13.4
